# key: entry, value: pIC50
- System Name: human MRGPRD (Homo sapiens)
- Protocol Notes: MRGPRD antagonist activity, IP-One HTRF assay in CHO cells stably expressing human MRGPRD (versus 100 μM β-Alanine agonist)
pIC50: −log10 of the molar value.

Recall and state the measured pIC50 for O=C(Nc1ccncc1)c1nnn(-c2cccc(-c3ccc(Cl)cc3)c2)c1C1CC1 . 5.52 to 6.00

Recall and state the measured pIC50 for O=C(Nc1ccncc1)c1nnn(-c2ccc(-c3cnn(C4CC4)c3)cc2)c1C1CC1 . 6.30 to 7.00

Recall and state the measured pIC50 for CN(C)Cc1cccc(-c2ccc(-n3nnc(C(=O)Nc4ccncc4)c3C3CC3)cc2)c1 . 6.00 to 6.30

Recall and state the measured pIC50 for Cc1ccc(-n2nnc(C(=O)Nc3cc(F)nc(F)c3)c2C2CC2)cc1 . 6.00 to 6.30

Recall and state the measured pIC50 for Cc1cn2c(NC(=O)c3nnn(-c4ccc(-c5ccccc5)cc4)c3C3CC3)cccc2n1 . 5.52 to 6.00

More entries:
Recall and state the measured pIC50 for O=C(Nc1ccncc1)c1nnn(-c2cccc(-c3ccc[nH]3)c2)c1C1CC1 . 5.52 to 6.00

Recall and state the measured pIC50 for Cc1ccc(-n2nnc(C(=O)Nc3ccncc3)c2C2CC2)c(C)c1 . 5.52 to 6.00

Recall and state the measured pIC50 for CCn1cc(CNC(=O)c2nnn(-c3ccc(-c4c(C)nn5cccnc45)cc3)c2C2CC2)cn1 . 6.30 to 7.00

---

- System Name: human MRGPRD (Homo sapiens, UniProt Q8TDS7)
- Sequence (Q8TDS7 whole entry): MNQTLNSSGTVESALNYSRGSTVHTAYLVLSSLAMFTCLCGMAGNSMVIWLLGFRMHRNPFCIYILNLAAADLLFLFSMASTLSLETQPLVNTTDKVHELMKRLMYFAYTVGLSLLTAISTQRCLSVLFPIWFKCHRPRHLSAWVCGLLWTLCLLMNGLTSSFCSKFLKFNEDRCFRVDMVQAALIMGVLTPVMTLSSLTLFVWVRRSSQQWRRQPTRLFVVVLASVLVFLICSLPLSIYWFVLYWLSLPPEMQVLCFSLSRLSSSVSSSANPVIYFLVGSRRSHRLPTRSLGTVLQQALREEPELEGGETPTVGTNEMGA
- Protocol Notes: MRGPRD antagonist activity, IP-One HTRF assay in CHO cells stably expressing human MRGPRD (versus 100 μM β-Alanine agonist)
Parameter: IC50

Below are worked cases with known answers.
Recall and state the measured IC50 for Cc1cc(-c2ccc(-n3nnc(C(=O)Nc4ccncc4)c3C3CC3)cc2)n(C)n1 . 500 to 1000 nM

Recall and state the measured IC50 for Cc1nocc1-c1ccc(-n2nnc(C(=O)Nc3ccncc3)c2C2CC2)cc1 . 100 to 500 nM

Recall and state the measured IC50 for CCn1cc(CNC(=O)c2nnn(-c3ccc(-c4ccc(C#N)cc4)cc3OC)c2C(C)C)cn1 . 100 to 500 nM

Recall and state the measured IC50 for COc1ccc(C2(NC(=O)c3nnn(-c4ccc(-c5ccc(C#N)cc5)cc4)c3C3CC3)CC2)cn1 . 100 to 500 nM

Recall and state the measured IC50 for CCn1nc(C)c(-c2ccc(-n3nnc(C(=O)N4Cc5cnn(C)c5C4)c3C3CC3)cc2)c1C . 1000 to 3000 nM

Recall and state the measured IC50 for Cc1ccc(CNC(=O)c2nnn(-c3ccc(-c4c(C)nn5cccnc45)cc3)c2C2CC2)cn1 . 100 to 500 nM

Recall and state the measured IC50 for Cc1cc(NC(=O)c2nnn(-c3ccc(-c4ccccc4)cc3)c2C2CC2)ccn1 . 100 to 500 nM

Recall and state the measured IC50 for N#CCc1cccc(-c2cccc(-n3nnc(C(=O)Nc4ccncc4)c3C3CC3)c2)c1 . 500 to 1000 nM

More entries:
Recall and state the measured IC50 for Cc1cc(-n2nnc(C(=O)Nc3ccncc3)c2C2CC2)ccc1-c1c(C)nn(C)c1C [Compound 7-315] . 1000 to 3000 nM

Recall and state the measured IC50 for O=C(Nc1ccncc1)c1nnn(-c2cccc(-c3ccn[nH]3)c2)c1C1CC1 . 1000 to 3000 nM

Recall and state the measured IC50 for COc1ccc(C2(NC(=O)c3nnn(-c4ccc(-c5ccc(C#N)cc5)cc4)c3C(C)C)CC2)cn1 . 500 to 1000 nM
